Target: Sulfonylurea receptor 2, Kir6.2 (Homo sapiens, UniProt O60706+Q14654)
Sequence (Q14654 whole entry): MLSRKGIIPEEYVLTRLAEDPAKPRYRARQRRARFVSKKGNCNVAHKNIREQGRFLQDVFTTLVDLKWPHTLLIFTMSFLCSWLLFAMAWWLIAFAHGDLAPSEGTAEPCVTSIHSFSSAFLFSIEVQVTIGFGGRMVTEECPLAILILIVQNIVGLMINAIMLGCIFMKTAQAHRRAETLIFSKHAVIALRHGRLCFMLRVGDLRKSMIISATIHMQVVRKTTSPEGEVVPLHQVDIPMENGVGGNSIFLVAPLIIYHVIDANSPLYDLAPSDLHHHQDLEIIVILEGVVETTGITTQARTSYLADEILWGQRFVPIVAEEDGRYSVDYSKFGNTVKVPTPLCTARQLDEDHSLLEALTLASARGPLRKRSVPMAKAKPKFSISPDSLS
Sequence (O60706 whole entry): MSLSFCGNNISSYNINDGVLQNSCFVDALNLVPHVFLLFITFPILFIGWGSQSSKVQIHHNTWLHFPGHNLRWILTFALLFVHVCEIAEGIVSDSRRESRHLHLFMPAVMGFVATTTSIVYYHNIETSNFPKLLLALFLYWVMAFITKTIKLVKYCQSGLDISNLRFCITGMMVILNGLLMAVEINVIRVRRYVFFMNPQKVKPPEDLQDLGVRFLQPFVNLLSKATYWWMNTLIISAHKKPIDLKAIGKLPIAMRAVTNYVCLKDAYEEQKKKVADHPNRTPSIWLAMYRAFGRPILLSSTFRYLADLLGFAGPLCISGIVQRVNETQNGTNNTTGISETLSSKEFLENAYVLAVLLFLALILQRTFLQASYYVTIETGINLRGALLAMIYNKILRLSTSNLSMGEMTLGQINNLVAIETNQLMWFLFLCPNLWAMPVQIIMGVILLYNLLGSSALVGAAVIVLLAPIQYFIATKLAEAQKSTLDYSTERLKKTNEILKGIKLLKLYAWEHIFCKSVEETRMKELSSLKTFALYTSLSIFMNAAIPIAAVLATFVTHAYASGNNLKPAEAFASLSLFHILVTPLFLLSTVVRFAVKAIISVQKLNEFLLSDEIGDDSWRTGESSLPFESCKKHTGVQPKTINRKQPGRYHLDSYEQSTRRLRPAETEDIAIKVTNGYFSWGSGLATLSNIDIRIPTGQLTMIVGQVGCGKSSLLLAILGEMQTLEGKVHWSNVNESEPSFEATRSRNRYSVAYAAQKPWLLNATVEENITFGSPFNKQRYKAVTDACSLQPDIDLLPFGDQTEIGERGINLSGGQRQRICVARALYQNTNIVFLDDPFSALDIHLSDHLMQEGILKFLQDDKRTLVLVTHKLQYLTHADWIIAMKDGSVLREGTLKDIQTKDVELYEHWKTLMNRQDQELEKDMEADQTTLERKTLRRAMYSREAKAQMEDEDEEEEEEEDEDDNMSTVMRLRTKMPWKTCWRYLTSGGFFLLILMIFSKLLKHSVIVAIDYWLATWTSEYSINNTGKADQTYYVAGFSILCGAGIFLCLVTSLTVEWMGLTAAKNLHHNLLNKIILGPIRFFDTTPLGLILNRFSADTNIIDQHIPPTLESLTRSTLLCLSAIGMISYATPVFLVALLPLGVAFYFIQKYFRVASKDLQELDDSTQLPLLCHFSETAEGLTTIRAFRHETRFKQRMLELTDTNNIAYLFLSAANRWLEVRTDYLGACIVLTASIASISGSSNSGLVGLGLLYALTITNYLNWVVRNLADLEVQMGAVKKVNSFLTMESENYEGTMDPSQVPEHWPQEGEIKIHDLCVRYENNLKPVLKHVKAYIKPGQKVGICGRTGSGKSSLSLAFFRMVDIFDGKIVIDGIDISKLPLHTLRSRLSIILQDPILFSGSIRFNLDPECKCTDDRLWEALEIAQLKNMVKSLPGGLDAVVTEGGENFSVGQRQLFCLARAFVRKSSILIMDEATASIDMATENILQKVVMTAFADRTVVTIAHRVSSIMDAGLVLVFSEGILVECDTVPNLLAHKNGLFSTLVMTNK
Experiment: Ability to open human urinary bladder Kir6.2 channel containing SUR2B in Ltk cells by FLIPR assay
Type: functional, cell-based
Please provide measured pEC50 for the entries that follow.
The meaning of pEC50 here: minus log10 of the concentration in molar units.

Q: Could you please provide reported pEC50 for CCC(C)(C)NC(=NC#N)Nc1cccnc1 ? Thanks!
Result: 7.28

Q: Give the reported pEC50 for this compound. CCCC[C@@H]1OC(O)=C2C1=NC1=C(C(=O)COC1)[C@H]2c1ccc(F)c(Br)c1 (relative stereo)
Result: 7.53

Q: Tell me measured pEC50 for CCC[C@H]1OC(O)=C2C1=NC1=C(C(=O)COC1)[C@H]2c1ccc(Br)c(Br)c1 (stereo in doubt; 45b) please.
Result: 6.90

Q: Give me measured pEC50, please, for this compound: C[C@@H]1OCC2=C(C1=O)[C@@H](c1ccc(F)c(Br)c1)C1=C(O)OCC1=N2 (stereo in doubt; 7b)
Result: 6.29
